# Tested on: CASKI
# test details: Primary qHTS to identify gynecologic anti-cancer compounds using libraries of approved drugs and bioactive compounds (AID 1345084); further: nearly all actives have a fitted effect of over 55% in size; on activity change, negative = cytotoxicity: on the % scale 0 is the no-effect control and ±100 the full control effect
# study conditions: Gynecologic cancer cell panel viability, ATPlite luminescence, 48 h; series mostly up to 57.5 µM
Records with an inconclusive call do not appear. Activity calls are given as the source filed them. The call rests on the fitted dose curve; in most records, active means well fitted cell-killing curve with a large enough effect; inconclusive means small, poorly fitted or top-dose-only effect, or effect the other way; inactive means flat fitted curve, though single readings scatter.
Kindly state activity change, negative = cytotoxicity for each of the entries shown.

Some molecules with known activity change, negative = cytotoxicity results, for comparison:
molecule: CC(C)=CCC/C(C)=C/CC/C(C)=C/COC1OC(COC2OCC(OC3OCC(O)C(O)C3O)C(O)C2O)C(O)C(OC2OC(C)C(OC3OC(C)C(OC4OCC(OC5OC(C)C(O)C(O)C5O)C(O)C4O)C(O)C3O)C(O)C2O)C1O (centres undefined)
activity change, negative = cytotoxicity: -7.12% [at 6.55 µM] (inactive)
//
molecule: C[C@@H]1O[C@@H](O[C@H]2[C@H](O)[C@@H](O)[C@H](O[C@H]3[C@H](O[C@H]4CC[C@@]5(C)C(=CC[C@@H]6C5CC[C@]5(C)[C@@H]7[C@H](C[C@@H]65)O[C@]5(CC[C@@](C)(CO[C@@H]6O[C@H](CO)[C@@H](O)[C@H](O)[C@H]6O)O5)[C@H]7C)C4)O[C@H](CO)[C@@H](O)[C@@H]3O)O[C@@H]2CO)[C@H](O)[C@H](O)[C@H]1O (some centres undefined)
activity change, negative = cytotoxicity: 21.1% [at 11.6 µM] (inactive)
//
molecule: C[C@@H]1O[C@@H](O[C@H]2[C@H](OC(=O)[C@]34CCC(C)(C)C[C@H]3C3=CCC5[C@@]6(C)C[C@H](O)[C@H](O[C@@H]7O[C@H](CO)[C@@H](O[C@H]8OC[C@](O)(CO)[C@H]8O)[C@H](O)[C@H]7O)[C@@](C)(CO)C6[C@H](O)C[C@@]5(C)[C@]3(C)C[C@H]4O)OC[C@H](O)[C@@H]2O)[C@H](O)[C@H](O)[C@H]1O[C@@H]1OC[C@@H](O)[C@H](O[C@@H]2OC[C@](O)(CO)[C@H]2O)[C@H]1O (some centres undefined)
activity change, negative = cytotoxicity: -0.0524% [at 6.55 µM] (inactive)

Request: activity change, negative = cytotoxicity lookup needed for CC1OC(O[C@H]2CC[C@@]3(C)C(CC[C@]4(C)C3CC=C3C5CC(C)(C)CC[C@]5(C(=O)OC5OC(CO)C(OC6OC(COC7OCC(O)C(O)C7O)C(O)C(O)C6O)C(O)C5O)CC[C@]34C)C2(C)C)C(O)C(O)C1OC1OCC(OC2OCC(O)C(O)C2O)C(O)C1O (some centres undefined) , thanks.
Response: -2% [at 6.55 µM] (inactive)

====

# Tested on: Nanoluciferase (engineered Oplophorus gracilirostris luciferase)
# test details: Primary Nanoluciferase (NLuc) qHTS assay for identification of artifact compounds. (AID 1845222);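 further: NLuc secreted into diluted conditioned medium of S16 cells; 0% = DMSO and -100% = no enzyme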
# study conditions: NLuc-conditioned medium, Nano-Glo luminescence, 5 min; series mostly up to 54.1 µM
Active and inactive are the calls of the source. Calls follow the shape of the dose curve; as a rule, active = well fitted inhibition curve with a large enough effect; inconclusive = small, poorly fitted or top-dose-only effect; inactive = flat fitted curve, though single readings scatter.

compound string: COc1ccc(CN2C(=O)C(=O)c3cc(S(=O)(=O)N4CCC[C@H]4COc4cccnc4)ccc32)cc1
activity, negative = inhibition: inactive
--
compound string: COC(=O)c1ccccc1O[C@@H]1O[C@H](CO)[C@@H](O)[C@H](O)[C@H]1O[C@@H]1O[C@@H](C)[C@H](O)[C@@H](O)[C@H]1O
activity, negative = inhibition: inactive
--
compound string: CC1(C)C=CN2C(=O)C3=CCCN3C(=O)[C@@H]2C[C@@]12Nc1ccccc1C2=O
activity, negative = inhibition: inactive
--
compound string: Cn1ncnc1COc1nn2c(-c3cc(F)ccc3F)nnc2cc1C(C)(C)C
activity, negative = inhibition: inactive

====

# System: SKOV3
# test details: Primary qHTS to identify gynecologic anti-cancer compounds using libraries of approved drugs and bioactive compounds (AID 1345084); further: nearly all actives have a fitted effect of over 55% in size
# study conditions: Gynecologic cancer cell panel viability, ATPlite luminescence, 48 h; series mostly up to 57.5 µM
Inconclusive results are not listed. Activity calls are given as the source filed them. Calls come from the whole dose curve; as a rule, active = well fitted cell-killing curve with a large enough effect; inconclusive = small, poorly fitted or top-dose-only effect, or effect the other way; inactive = flat fitted curve, though single readings scatter.
Return exactly one item of active, inactive

Worked set:
compound: C=CC[C@]12C[C@@H](OC)C(=O)C(OC)=C1O[C@@H](c1cc(OC)c3c(c1)OCO3)[C@@H]2C
experimental target: SKOV3
category: inactive
//
compound: CCC(C)C(=O)OC1CC(O)C23C4OCC5(C(O)CC2C1(C)C(O)O4)C3C(=O)C(O)C1(C)C(O)(c2ccoc2)CC2OC251 (configuration not stated)
experimental target: SKOV3
category: active
//
compound: Nc1ccccc1N
experimental target: SKOV3
category: active
//
compound: CC(=O)OC1C[C@]2(C)C(O)CC(C)=C[C@H](OC(=O)c3ccc(O)cc3)C2[C@]1(O)C(C)C (some centres not stated)
experimental target: SKOV3
category: inactive
//
compound: CC(C)=CC/C=C(\C)[C@H]1CC[C@]2(C)[C@@H]1[C@H](O)C[C@@H]1[C@@]3(C)CC[C@H](O)C(C)(C)[C@@H]3[C@@H](O[C@@H]3O[C@H](CO)[C@@H](O)[C@H](O)[C@H]3O)C[C@]12C
experimental target: SKOV3
category: inactive

Request: Could you please tell me the result logged for CCN1CCN(Cc2ccc(NC(=O)c3ccc(C)c(/C=C/c4cnc5[nH]ccc5c4OC)c3)cc2C(F)(F)F)CC1 in this assay?
Response: active

Request: What classification did C/C1=C\[C@H]2OC(=O)[C@@H](C)[C@@H]2CC/C(C(=O)O)=C/CC1 end up with in this test?
Response: inactive

Request: Assay outcome for O=C(O)c1cc(I)ccc1NC(=O)[C@H](Cc1ccccc1)NCc1ccccc1 : what was it?
Response: inactive

====

# test details: P-glycoprotein substrates identified in KB-8-5-11 adenocarcinoma cell line, qHTS therapeutic library screen (AID 1346987); further: nearly all actives have a fitted effect of over 65% in size; further: potency means the concentration at half of the fitted maximal effect
# study conditions: KB-8-5-11 (P-gp overexpressing) viability, CellTiter-Glo, 72 h; series mostly up to 44.5 µM
Records with an inconclusive call do not appear. Active and inactive are the calls of the source. Calls follow the shape of the dose curve; as a rule, active = well fitted inhibition curve with a large enough effect; inconclusive = small, poorly fitted or top-dose-only effect; inactive = flat fitted curve, though single readings scatter.
reported property: Potency

// worked examples, Potency included
molecule: Cc1cccc(-c2[nH]c(Cc3cccc(C(N)=O)c3)nc2-c2ccc3nccnc3c2)n1
reported property: Potency
value: inactive
//
molecule: CC1CC2OC3(OC2C(C)(C)O)C1C1(C)CCC24CC25CCC(O[C@@H]2OC[C@@H](O)[C@H](O)[C@H]2O)C(C)(C)C5CC=C4C1(C)C3O (stereo partly drawn)
reported property: Potency
value: inactive
//
molecule: NC(=O)[C@H]1CCS[C@@H]2C[C@]3(CCCN3C(=O)Cc3ccc(NC(=O)COc4ccc(Cl)cc4Cl)cc3)C(=O)N12
reported property: Potency
value: 20.6 µM (active)
//
molecule: COC(=O)C1=CO[C@@H](O[C@@H]2O[C@H](CO[C@@H]3O[C@H](COC(=O)/C=C/c4cc(OC)c(O)c(OC)c4)[C@@H](O)[C@H](O)[C@H]3O)[C@@H](O)[C@H](O)[C@H]2O)[C@@H]2C(CO)=CC[C@H]12
reported property: Potency
value: inactive

Go through the items and report each one's Potency.
1. C=C1C(=O)OC2CC3(C)C(CC12)C(C)=CC(O)C3OC(C)=O (stereo not drawn)
2. O=C1Nc2ccccc2C(O)(c2ccccc2)C1O (stereo not drawn)
3. C=C(C(=O)O)C1CC2=C(C)CCCC2(C)C[C@@H]1O (stereo partly drawn)

Response:
1: inactive; 2: inactive; 3: inactive

List reported Potency for each of these molecules:
1. COc1ccc(/C=C/C(=O)O[C@@H]2[C@@H](O)[C@H](C)O[C@@H](O[C@H]3[C@@H]4C=CO[C@@H](O[C@H]5O[C@@H](CO)[C@H](O)[C@@H](O)[C@@H]5O)[C@@H]4[C@@]4(CO)O[C@@H]34)[C@@H]2OC(C)=O)cc1
2. C=CC(=O)Nc1cc(Nc2ncc(Cl)c(-c3c[nH]c4ccccc34)n2)c(OC)cc1N(C)CCN(C)C
3. CO/N=C(/C(=O)N[C@@H]1C(=O)N2C(C(=O)O)=C(Cn3ccc(=N)n3CCO)CS[C@H]12)c1csc(N)n1
4. NCc1c[nH]c(=S)n1[C@@H]1CCc2c(F)cc(F)cc2C1

Response:
inactive
5.17 µM (active)
inactive
inactive

Dear colleague, could you please provide Potency for the molecules listed below?
1. CC(C)=CCC[C@](C)(O)[C@H]1CC[C@]2(C)[C@@H]1[C@H](O)CC1[C@@]3(C)CC[C@H](O)C(C)(C)[C@@H]3[C@@H](O[C@@H]3O[C@H](CO)[C@@H](O)[C@H](O)[C@H]3O[C@@H]3O[C@H](CO)[C@@H](O)[C@H](O)[C@H]3O)C[C@]12C (stereo partly drawn)
2. CCN1CCN(Cc2ccc(Nc3ncc(F)c(-c4cc(F)c5nc(C)n(C(C)C)c5c4)n3)nc2)CC1
3. C[C@@H]1[C@H]2[C@H](O[C@@H]3O[C@H](CO)[C@@H](O)[C@H](O)[C@H]3O)OC=C(C(=O)O)[C@H]2C[C@@H]1O
4. COc1ccc2cc(C(C)C(=O)Oc3ccc(C(N)=S)cc3)ccc2c1 (stereo not drawn)
5. COc1nc2sc(C(=O)NC3CC3)c(N)c2c(C)c1Cl
6. CC1(C)CCCC2(C)C1C(O)C=C(CO)C2(O)CO (stereo not drawn)
7. C/C=C1\[C@H](O[C@@H]2O[C@H](CO)[C@@H](O)[C@H](O)[C@H]2O)OC=C(C(=O)OC)[C@H]1CC(=O)O
8. COc1cc2ncnc(Nc3ccc(F)c(Cl)c3)c2cc1NC(=O)/C=C/CN1CCCCC1

Response:
inactive
4.11 µM (active)
inactive
inactive
inactive
inactive
inactive
10.3 µM (active)

Where do these numbers come from? They come from PubChem BioAssay (NCATS).
